Reference for the values: patent US12331048B2

protocol details: Brain levels (kp and kpu,u) after oral administration
Type: in vivo, CDI mice
setup conditions: CDI, mouse, brain / plasma, po, 20 mg/kg, mice, 20 mpk PO; kp corrected with mouse plasma protein binding and mouse brain homogenate binding
Protocol: The in vivo total brain to plasma ratio was assessed in CDI mice after oral administration of the compound. Blood was collected at several timepoints up to 24 h, and transferred into plastic micro centrifuge tubes with EDTA-K2 as anticoagulant. […] Plasma and brain drug levels were quantified by LC/MS/MS on a AB Sciex Triple Quad 5500+ instrument, after separation on a HALO 160A ES-C18, 2.7 μm 2.1-50 mm column. […] Kpuu was calculated as (AUCtot,br×Fu,br)/(AUCtot,pl×Fu,pl). […]
# binarize Kpu,u (unbound brain-to-plasma ratio): threshold 0.5 inclusive, high side class 1, low side class 0

{"compound": "C[C@H]1C[C@H](Nc2nnc(-c3ccc(Cl)cc3O)c3ccncc23)CCO1 (single isomer, unassigned) [Compound 25C*]", "label value": "class 0"}
{"compound": "CC1(C)COC[C@@H]1Nc1nnc(-c2ccc(Cl)cc2O)c2ccncc12 (single isomer, unassigned)", "label value": "class 0"}
{"compound": "Oc1cc(C(F)(F)F)ccc1-c1nnc(N[C@H]2COC3(CC3)C2)c2cnccc12 (single isomer, unassigned)", "label value": "class 1"}
{"compound": "CC1(C)CC[C@H](Nc2nnc(-c3ccc(C(F)F)cc3O)c3ccncc23)CO1 (single isomer, unassigned)", "label value": "class 0"}
{"compound": "CC1(C)C[C@@H](Nc2nnc(-c3ccc(C(F)F)cc3O)c3ccncc23)CCO1 (single isomer, unassigned)", "label value": "class 1"}

Shifting focus to the compound that follows.
Query: Item Cc1ccc(-c2nnc(N[C@H]3CCOCC3(C)C)c3cnccc23)c(O)c1 (single isomer, unassigned) with Kpu,u (unbound brain-to-plasma ratio) of 0.5 or above?
Response: class 1
